# System: SR
# assay summary: NCI tumour cell line growth inhibition, 48 h
The source made the active and inactive calls. Rule as the data show it: active = GI50 up to about 1.1 µM and inactive = higher.
Entry note: the call must match one of active, inactive

Illustrative cases are given below, each with its answer.
CC12ON(P(=O)(c3ccccc3)c3ccccc3)C(C)(c3ccccc31)c1ccccc12 ... inactive
O=C1C(Br)=C(Br)C(=O)c2ccc(=O)ccc21 ... inactive
CCO[C@]12C[C@H](OC)[C@@]3(O)CC(C1[C@H]3OCc1ccccc1)C13C4C2[C@H](OC)C1[C@](COC)(CN4CC)[C@H](O)C[C@@H]3OC (some centres not stated) ... inactive
CC1(C)C(=O)C(C)(C)C12SSC1(S2)C(C)(C)C(=O)C1(C)C ... inactive

Query: Call for entry N#C/C(=C\c1ccc2ccccc2c1)c1ccccc1 :
Result: inactive

Query: Per the assay record, what outcome was assigned to O=c1ccc2ccc(OP(=O)(O)O)cc2o1 ?
Result: inactive

Query: Per the records of this test, what outcome belongs to N#C/C(N)=C(C#N)/N=C/Nc1ccc(N)cc1 ?
Result: inactive

Query: Name the outcome recorded for CC(C)(C)OC(=O)NCCNC(=O)OCc1ccccc1 in the assay.
Result: inactive

Query: Which outcome was entered for the compound CC(=O)OCCn1cnc2nc(Nc3ccccc3)nc(Cl)c21 in this test?
Result: inactive

Query: Which outcome was entered for the compound O=C(O)C(=C\c1ccc2c(c1)OCO2)/C(=C/c1ccc2c(c1)OCO2)C(=O)O in this test?
Result: inactive

Where these numbers come from: ChEMBL document CHEMBL1201862
